- TEST_SYSTEM: Shiga toxin 2 (Escherichia coli O157:H7) (UniProt P09385+P09386)
- TEST_DETAILS: E. coli 0.157:H7 Shiga Toxin SOP - stx2 screening assay
- Type: functional
- Parameters: scale not given: direction of the effect not stated beside the values
- CONDITIONS_USED: 30 µM
Provide the recorded Percent Effect for the entries that follow.
Entry rule: numbers only, all in %.

Report Percent Effect under test system Shiga toxin 2 (Escherichia coli O157:H7) (UniProt P09385+P09386) for CC(=O)NCCNC(=O)N(C)Cc1ccc2c(c1)OCCO2 .
15.2

Report Percent Effect under test system Shiga toxin 2 (Escherichia coli O157:H7) (UniProt P09385+P09386) for O=C(CCc1cccc(F)c1F)N1CCN(Cc2ccco2)CC1 .
-2.83

Report Percent Effect under test system Shiga toxin 2 (Escherichia coli O157:H7) (UniProt P09385+P09386) for CN(C)C(=O)N1CCc2c(nnn2C)C1COCc1ccccc1 (stereo unspecified) .
-16.6

Report Percent Effect under test system Shiga toxin 2 (Escherichia coli O157:H7) (UniProt P09385+P09386) for COc1ccccc1-c1cc(C(F)(F)F)c2c(C)nn(CC(=O)O)c2n1 .
-13.7

Report Percent Effect under test system Shiga toxin 2 (Escherichia coli O157:H7) (UniProt P09385+P09386) for Cc1nc(CN2CCc3ncnc(C)c3CC2)cs1 .
-9.46

Report Percent Effect under test system Shiga toxin 2 (Escherichia coli O157:H7) (UniProt P09385+P09386) for CC(=O)NCc1ccc(C(=O)N2CCCC2c2cnn(C)c2)o1 (stereo unspecified) .
21.1

Origin of values: ChEMBL document CHEMBL3988442
